Hello, the source for this data is patent US20220340682A1, in case you need it.

# SYSTEM_UNDER_TEST: T1, cCEACAM5, M. fascicularis CEACAM5 ECD (35-688) (Macaca fascicularis)
# T1 construct: ECD followed by a 24 amino acid extension containing a His-Tag; also called cynomolgus CEACAM5; monkey CEACAM5
# T1 chain: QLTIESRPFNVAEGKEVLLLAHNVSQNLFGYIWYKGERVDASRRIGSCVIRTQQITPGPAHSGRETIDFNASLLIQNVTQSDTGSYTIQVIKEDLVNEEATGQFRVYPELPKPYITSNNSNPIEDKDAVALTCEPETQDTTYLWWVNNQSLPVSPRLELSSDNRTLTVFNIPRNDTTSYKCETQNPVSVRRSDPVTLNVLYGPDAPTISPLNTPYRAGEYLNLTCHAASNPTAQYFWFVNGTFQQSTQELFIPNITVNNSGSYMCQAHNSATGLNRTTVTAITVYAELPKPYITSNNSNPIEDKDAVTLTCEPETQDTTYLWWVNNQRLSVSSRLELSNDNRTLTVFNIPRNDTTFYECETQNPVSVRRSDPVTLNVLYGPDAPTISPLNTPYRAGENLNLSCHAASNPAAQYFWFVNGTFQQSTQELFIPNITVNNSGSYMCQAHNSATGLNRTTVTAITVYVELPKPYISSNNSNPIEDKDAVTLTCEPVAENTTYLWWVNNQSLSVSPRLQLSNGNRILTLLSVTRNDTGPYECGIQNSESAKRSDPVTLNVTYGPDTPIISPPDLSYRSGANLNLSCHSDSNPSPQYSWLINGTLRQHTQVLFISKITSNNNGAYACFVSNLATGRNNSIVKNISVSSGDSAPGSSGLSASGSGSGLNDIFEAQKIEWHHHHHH
# PROTOCOL_NOTES: ELISA, coated CEACAM5
# Description: All CEACAM5-specific mAbs were assessed for their ability to bind human and primate CEACAM5 protein by ELISA. Plates were coated with human or primate CEACAM5 protein, anti-hCEACAM5 mAbs were added to the plate and detected with rabbit anti-mouse IgG conjugated with horseradish peroxidase (Sigma; # A9044). The antibody binding was visualized by adding TMB-H2O2 buffer and read at a wavelength of 450 nm.
Reported values of pEC50 for individual entries
Note on pEC50: it is the negative log10 of concentration, concentration in mol/L.

Take a look at these entries with their results.
antibody MAb1 (antibody, IgG1, V domains shown) VH: EVMLVESGGGLVKPGGSLKLSCAASGFTFSSYAMSWVRQTPEKRLEWVATISSGGSYIYYLDSVKGRFTISRDNAKNTLYLQMSSLRSEDTAMYYCARPAYYGNPAMDYWGQGTSVTVSS VL: DILMTQSQKFMSTSVGDRVSVTCKASQNVGTNVAWYQQKPGQSPKPLIYSASYRYSGVPDRFTGSGSGTDFTLTISNVQSEDLAEYFCQQYNSYPLYTFGGGTKLEIK = 8.93
antibody MAb4 (antibody, IgG1, V domains shown, Murine monoclonal from hybridoma, IgG1, kappa) VH: EVQLVESGGGLVKPGGSLKLSCAASGFTFSSYDMSWVRQTPEKRLEWVAFISSYGGRTYYADTVKGRFTISRDNAKNTLYLQMSSLKSEDTAMFYCAAHYFGTSGPFAYWGQGTLVTVSA VL: DIQMTQSPASLSASVGETVTITCRASENIYSYFAWYQQKQGKSPQLLVYNAKILAEGVPSRFSGSGSGTQFSLKINSLQPEDFGTYYCQHHYGIPFTFGSGTKLELK = 10.30
antibody MAb2 (antibody, mouse IgG1, V domains shown, Murine IgG1, kappa; Rows are tied to the label as printed) VH: EVQLQESGGVLVKPGGSLKLSCAASGFVFSSYDMSWVRQTPEKRLEWVAYISSGGGITYFPDTVQGRFTVSRDNAKNTLYLQMNSLKSEDTAIYYCAAHYFGSSGPFAYWGQGTLVTVSA VL: DIQMTQSPASLSASVGETVTITCRASENIFSYLAWYQQKQGKSPQLLVYNTKTLAEGVPSRFSGSGSGTQFSLKINSLQPEDFGSYYCQHHYGTPFTFGSGTKLEIK = 10.15
antibody MAb5 (antibody, IgG1, V domains shown, Murine monoclonal from hybridoma, IgG1, kappa) VH: ELQLVESGGVLVKPGGSLKLSCAASGFAFSSYDMSWVRQTPEKRLEWVTYINSGGGITYYPDTVKGRFTISRDNARNTLYLQMSSLKSEDTAIYYCTAHYFGSSGPFAYWGQGTLVTVSA VL: DIQMTQSPASLSASVGETVTITCRASENIYSYLAWYQQKQGKSPQLLVYNAKTLTEGVPSRFSGSGSGTQFSLKINSLQPEDFGSYYCQHHYGTPFTFGSGTKLEIK = 9.35

Exercise: So what does the record say about pEC50 for antibody MAb3 (antibody, IgG1, V domains shown, Murine monoclonal from hybridoma, IgG1, kappa) VH: EVKLVESGGGLVKPGGSLTLPCAASGFTFSRYAMSWVRQTPEKRLEWVASISSGGDTYYPDSVKGRFTVSRDNARNILFLQMSSLRSEDTGMYYCARVNYYDSSFLDWWGQGTTLTVSS VL: DIVMTQSQRFMSTLEGDRVSVTCKASQNVGTNVAWYQQKPGQSPKALIYSASYRYSGVPDRFTGSGSGTDFTLTISNVQSEDLAEYFCQQYNNYPLYTFGGGTKLEIK ?
Solution: 8.43
